Hello, the source for this data is patent US8530489B2, in case you need it.

Consider the following pKi values measured on PLK1 (Homo sapiens, UniProt P53350).
Sequence (P53350 whole entry): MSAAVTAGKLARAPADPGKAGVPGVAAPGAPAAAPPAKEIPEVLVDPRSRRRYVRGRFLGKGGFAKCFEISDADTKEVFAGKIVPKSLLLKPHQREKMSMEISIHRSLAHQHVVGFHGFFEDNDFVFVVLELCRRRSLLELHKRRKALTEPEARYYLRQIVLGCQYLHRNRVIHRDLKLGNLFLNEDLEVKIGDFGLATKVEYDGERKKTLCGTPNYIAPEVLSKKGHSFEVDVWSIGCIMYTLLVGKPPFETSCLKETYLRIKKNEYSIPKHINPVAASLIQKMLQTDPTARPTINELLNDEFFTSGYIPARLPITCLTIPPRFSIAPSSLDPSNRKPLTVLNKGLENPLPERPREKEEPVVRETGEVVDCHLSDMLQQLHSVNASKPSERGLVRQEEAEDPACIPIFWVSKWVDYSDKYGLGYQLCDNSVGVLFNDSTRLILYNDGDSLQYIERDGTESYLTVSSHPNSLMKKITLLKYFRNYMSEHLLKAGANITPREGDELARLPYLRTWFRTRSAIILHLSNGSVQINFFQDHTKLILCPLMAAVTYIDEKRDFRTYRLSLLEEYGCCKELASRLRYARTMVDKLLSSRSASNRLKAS
pKi: −log10 of the molar value.

Sample records with pKi:
CN1CCC(Nc2ncc(C#N)c(-c3c[nH]c4ncc(C(F)(F)F)cc34)n2)CC1 [Compound I-63] :: 7.40 to 8.52
CCN(Cc1ccccc1)c1ncc(C#N)c(-c2c[nH]c3ncc(C(F)(F)F)cc23)n1 [Compound I-11] :: < 7.40
C[C@H](CN1CCOCC1)Nc1ncc(C#N)c(-c2c[nH]c3ncc(C(F)(F)F)cc23)n1 [Compound I-132] :: 7.40 to 8.52

Consider the record given below.
The reported pKi of the molecule N#Cc1cnc(N[C@@H]2CC3CC[C@@H]2C3)nc1-c1c[nH]c2ncc(C(F)(F)F)cc12 [Compound I-65] was 7.40 to 8.52

----------
target: PLK1 (Homo sapiens)
Each entry below lists one item and its recorded Ki value.

Item: CC(Nc1ncc(C#N)c(-c2c[nH]c3ncc(C(F)(F)F)cc23)n1)c1ccc(O[C@@H]2CCN(C)C2)nc1 (stereo partly drawn) [Compound I-271] | System: PLK1 (Homo sapiens) | Ki: 3 to 40 nM

Item: CN1CCC(CNc2ncc(C#N)c(-c3c[nH]c4ncc(C(F)(F)F)cc34)n2)CC1 [Compound I-117] | System: PLK1 (Homo sapiens) | Ki: > 40 nM

Item: N#Cc1cnc(Sc2ccccc2Cl)nc1-c1c[nH]c2ncc(C(F)(F)F)cc12 [II-5] | System: PLK1 (Homo sapiens) | Ki: > 40 nM

Item: CC(Nc1ncc(C#N)c(-c2c[nH]c3ncc(C(F)(F)F)cc23)n1)C1(F)CCN(CC#N)CC1 (stereo not drawn) [Compound I-238] | System: PLK1 (Homo sapiens) | Ki: < 3 nM

Item: N#Cc1cnc(Sc2ccc(Br)cc2)nc1-c1c[nH]c2ncc(C(F)(F)F)cc12 [II-8] | System: PLK1 (Homo sapiens) | Ki: > 40 nM

Item: CNC(=O)c1ccc([C@H](C)Nc2ncc(C#N)c(-c3c[nH]c4ncc(C(F)(F)F)cc34)n2)cc1 [Compound I-164] | System: PLK1 (Homo sapiens) | Ki: 3 to 40 nM

Item: CC[C@@H](C)Nc1ncc(C#N)c(-c2c[nH]c3ncc(C(F)(F)F)cc23)n1 [Compound I-83] | System: PLK1 (Homo sapiens) | Ki: < 3 nM

----------
pKi: −log10 of the molar value.
Consider the following pKi values measured on UniProt P53350.

C[C@@H](Nc1ncc(C#N)c(-c2c[nH]c3ncc(C(F)(F)F)cc23)n1)c1ccc(N2CCN3CCC[C@H]3C2)nc1 [Compound I-291] :: > 8.52

Item: C[C@H](O)[C@@H](CO)Nc1ncc(C#N)c(-c2c[nH]c3ncc(C(F)(F)F)cc23)n1 [Compound I-108] | System: UniProt P53350 | pKi: 7.40 to 8.52

Item: CN(C)c1ccc(CNc2ncc(C#N)c(-c3c[nH]c4ncc(C(F)(F)F)cc34)n2)cc1 [Compound I-59] | System: UniProt P53350 | pKi: 7.40 to 8.52

Item: N#Cc1cnc(N[C@@H]2CC[C@H](CO)C2)nc1-c1c[nH]c2ncc(C(F)(F)F)cc12 [Compound I-119] | System: UniProt P53350 | pKi: 7.40 to 8.52

Item: CC(Nc1ncc(C#N)c(-c2c[nH]c3ncc(C(F)(F)F)cc23)n1)c1ccc(O)c(Cl)c1 (stereo not shown) [Compound I-122] | System: UniProt P53350 | pKi: > 8.52

Item: C[C@@H](Nc1ncc(C#N)c(-c2c[nH]c3ncc(C(F)(F)F)cc23)n1)c1ccc(N(C)C2CCN(C)C2)nc1 (stereo partly shown) [Compound I-295] | System: UniProt P53350 | pKi: > 8.52

Item: CC[C@H](C)Nc1ncc(C#N)c(-c2c[nH]c3ncc(C(F)(F)F)cc23)n1 [Compound I-77] | System: UniProt P53350 | pKi: 7.40 to 8.52

----------
biological target: PLK3 (S38-A340) (Homo sapiens, UniProt Q9H4B4); construct: in the presence of 5 nM PLK3 (S38-A340); test: PLK3 Inhibition Assay (radioactive-phosphate incorporation); format: biochemical; details: selectivity ratio, PLK3 over PLK1
Sequence (Q9H4B4 58-340 limits assumed): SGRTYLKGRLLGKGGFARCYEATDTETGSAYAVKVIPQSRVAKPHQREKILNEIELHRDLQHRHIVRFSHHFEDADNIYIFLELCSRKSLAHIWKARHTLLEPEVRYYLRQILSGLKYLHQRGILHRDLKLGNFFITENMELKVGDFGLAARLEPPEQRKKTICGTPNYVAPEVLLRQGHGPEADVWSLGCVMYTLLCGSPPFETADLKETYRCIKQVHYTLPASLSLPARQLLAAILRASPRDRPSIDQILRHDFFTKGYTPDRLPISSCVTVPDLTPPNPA
assayEndpoint: Ki(PLK3)/Ki(PLK1)
Provide a numeric answer; units are not to be included.

Sample records with Ki(PLK3)/Ki(PLK1):
CC(Nc1ncc(C#N)c(-c2c[nH]c3ncc(C(F)(F)F)cc23)n1)c1ccc(N[C@H]2CCNC2)nc1 (some centres unmarked) :: 39
CNCCN(C)c1ccc([C@@H](C)Nc2ncc(C#N)c(-c3c[nH]c4ncc(C(F)(F)F)cc34)n2)cn1 :: 919
CC(Nc1ncc(C#N)c(-c2c[nH]c3ncc(C(F)(F)F)cc23)n1)c1ccc(N2CCCN(C)CC2)cc1 (centres unmarked) :: 126

The reported Ki(PLK3)/Ki(PLK1) of the compound CC(Nc1ncc(C#N)c(-c2c[nH]c3ncc(C(F)(F)F)cc23)n1)c1ccc(N2CCN(C)CC2)cc1 (centres unmarked) was 28

The reported Ki(PLK3)/Ki(PLK1) of the compound C[C@@H](Nc1ncc(C#N)c(-c2c[nH]c3ncc(C(F)(F)F)cc23)n1)c1ccc(N2CCN(C)CC2)nc1 (single isomer, unassigned) was 186

The reported Ki(PLK3)/Ki(PLK1) of the compound CC(Nc1ncc(C#N)c(-c2c[nH]c3ncc(C(F)(F)F)cc23)n1)c1ccc(N2CCCNCC2)cc1 (centres unmarked) was 163

The reported Ki(PLK3)/Ki(PLK1) of the compound CC(Nc1ncc(C#N)c(-c2c[nH]c3ncc(C(F)(F)F)cc23)n1)c1ccc(N2CCNCC2)nc1 (centres unmarked) was 586

The reported Ki(PLK3)/Ki(PLK1) of the compound C[C@@H](Nc1ncc(C#N)c(-c2c[nH]c3ncc(C(F)(F)F)cc23)n1)c1ccc(N2CCN(C)CC2)cc1 was 140

----------
Consider the following Ki values measured on PLK1 (Homo sapiens, UniProt P53350).

Sample records with Ki:
C[C@@H](Nc1ncc(C#N)c(-c2c[nH]c3ncc(C(F)(F)F)cc23)n1)c1ccc(N2CCN(C)CC2)cc1 :: < 3 nM
COc1cccc(Sc2ncc(C#N)c(-c3c[nH]c4ncc(C(F)(F)F)cc34)n2)c1 :: > 40 nM
N#Cc1cnc(NC2CCCC2)nc1-c1c[nH]c2ncc(C(F)(F)F)cc12 :: 3 to 40 nM
C[C@@H](Nc1ncc(C#N)c(-c2c[nH]c3ncc(C(F)(F)F)cc23)n1)C1CCN(C(=O)[C@@H](N)CO)CC1 :: < 3 nM

The reported Ki of the compound CC(C)C[C@@H](N)C(=O)N1CCC([C@@H](C)Nc2ncc(C#N)c(-c3c[nH]c4ncc(C(F)(F)F)cc34)n2)CC1 was 3 to 40 nM

The reported Ki of the compound CC(Nc1ncc(C#N)c(-c2c[nH]c3ncc(C(F)(F)F)cc23)n1)c1ccc(N(C)C)nc1 (stereo not drawn) was < 3 nM

The reported Ki of the compound CNc1ccc(C(C)Nc2ncc(C#N)c(-c3c[nH]c4ncc(C(F)(F)F)cc34)n2)cn1 (stereo not drawn) was < 3 nM

The reported Ki of the compound N#Cc1cnc(Nc2ccccc2)nc1-c1c[nH]c2ncc(C(F)(F)F)cc12 was 3 to 40 nM

The reported Ki of the compound COC(=O)N1CCC(C(C)Nc2ncc(C#N)c(-c3c[nH]c4ncc(C(F)(F)F)cc34)n2)CC1 (stereo not drawn) was < 3 nM

The reported Ki of the compound N#Cc1cnc(NCc2ccc3c(c2)OCO3)nc1-c1c[nH]c2ncc(C(F)(F)F)cc12 was 3 to 40 nM

----------
target: PLK1 (Homo sapiens)
pKi: −log10 of the molar value.
assayEndpoint: pKi

Sample records with pKi:
CNCCN(C)c1ccc([C@@H](C)Nc2ncc(C#N)c(-c3c[nH]c4ncc(C(F)(F)F)cc34)n2)cn1 [Compound I-275] :: > 8.52
COc1ccc(Sc2ncc(C#N)c(-c3c[nH]c4ncc(C(F)(F)F)cc34)n2)cc1 [II-3] :: < 7.40
N#Cc1cnc(NCC2(O)CCCCC2)nc1-c1c[nH]c2ncc(C(F)(F)F)cc12 [Compound I-49] :: 7.40 to 8.52

The reported pKi of the molecule C[C@@H](Nc1ncc(C#N)c(-c2c[nH]c3ncc(C(F)(F)F)cc23)n1)[C@H]1CC[C@H](O)CC1 [Compound I-179] was > 8.52

----------
molecular target: PLK1 (Homo sapiens, UniProt P53350)
assayEndpoint: Ki

Sample records with Ki:
C[C@@H](Nc1ncc(C#N)c(-c2c[nH]c3ncc(C(F)(F)F)cc23)n1)C1CCN(C(=O)[C@H]2C[C@@H](O)CN2)CC1 :: < 3 nM
CCCNc1ncc(C#N)c(-c2c[nH]c3ncc(C(F)(F)F)cc23)n1 :: 3 to 40 nM
C[C@@H](Nc1ncc(C#N)c(-c2c[nH]c3ncc(C(F)(F)F)cc23)n1)c1ccc(N2CCNCC2)nc1 :: < 3 nM
C[C@@H](Nc1ncc(C#N)c(-c2c[nH]c3ncc(C(F)(F)F)cc23)n1)c1cnc(O)nc1 :: < 3 nM
N#Cc1cnc(NC[C@H]2CCCN2)nc1-c1c[nH]c2ncc(C(F)(F)F)cc12 :: > 40 nM
CC(Nc1ncc(C#N)c(-c2c[nH]c3ncc(C(F)(F)F)cc23)n1)C1CN(C(=O)CN)C1 (centres unmarked) :: > 40 nM
CC(Nc1ncc(C#N)c(-c2c[nH]c3ncc(C(F)(F)F)cc23)n1)c1ccc(N2CC(F)(C3CC3)C2)nc1 (centres unmarked) :: 3 to 40 nM
N#Cc1cnc(NCCCn2ccnc2)nc1-c1c[nH]c2ncc(C(F)(F)F)cc12 :: > 40 nM
C[C@@H](Nc1ncc(C#N)c(-c2c[nH]c3ncc(C(F)(F)F)cc23)n1)c1ccc(OC2CCN(C)CC2)cc1 :: 3 to 40 nM
C[C@@H](Nc1ncc(C#N)c(-c2c[nH]c3ncc(C(F)(F)F)cc23)n1)c1ccc(C(=O)NC2CC2)cc1 :: 3 to 40 nM

Consider the record given below.
Item: CC(C)C(C)Nc1ncc(C#N)c(-c2c[nH]c3ncc(C(F)(F)F)cc23)n1 (centres unmarked) | System: PLK1 (Homo sapiens, UniProt P53350) | Ki: 3 to 40 nM
